Reported weight increase rate (%) is given for each of the following compounds.
assay: Experimental Example 4: comparison of hygroscopicity by weight gain over time (40 to 46% RH); assay type: physicochemical; details: 24° C., 45 minutes
Give your result in % as a bare value.

Below are worked cases with known answers.
>  <compound>
CCOC(=O)[C@H](C)N.O=S(=O)(O)c1ccccc1 [L-Ala-OEt BsOH salt, L-alanine ethyl ester benzenesulfonate]

>  <test_result>
0.75

$$$$
>  <compound>
CCOC(=O)[C@H](C)N.CS(=O)(=O)O [L-Ala-OEt MsOH salt, L-alanine ethyl ester methanesulfonate]

>  <test_result>
0.00

$$$$
>  <compound>
CCOC(=O)[C@H](C)N.Cl [L-Ala-OEt HCl salt, alanine ethyl ester hydrochloride]

>  <test_result>
6.42

$$$$

Next item in the queue.
Looking up CCOC(=O)[C@H](C)N.O=S(=O)(O)c1ccc(Cl)cc1 [L-Ala-OEt 4-CBS salt] , I found its weight increase rate (%) recorded as 1.48

====

Reported weight increase rate (%) is given for each of the following compounds.
assay: Experimental Example 5: comparison of hygroscopicity by weight gain over time (60 to 66% RH); assay type: physicochemical; details: 24 EC, 110 minutes
Give your result in % as a bare value.

Below are worked cases with known answers.
>  <compound>
CCOC(=O)[C@H](C)N.CS(=O)(=O)O [L-Ala-OEt MsOH salt, L-alanine ethyl ester methanesulfonate]

>  <weight increase rate (%)>
0.48

$$$$
>  <compound>
CCOC(=O)[C@H](C)N.O=S(=O)(O)c1ccc(Cl)cc1 [L-Ala-OEt 4-CBS salt]

>  <weight increase rate (%)>
4.58

$$$$
>  <compound>
COC(=O)[C@H](C)N.Cl [L-Ala-OMe HCl salt, alanine methyl ester hydrochloride, reference compound]

>  <weight increase rate (%)>
13.69

$$$$

Looking up CCOC(=O)[C@H](C)N.O=S(=O)(O)c1ccccc1 [L-Ala-OEt BsOH salt, L-alanine ethyl ester benzenesulfonate] , I found its weight increase rate (%) recorded as 2.22

====

experiment: Experimental Example 5: comparison of hygroscopicity by weight gain over time (60 to 66% RH); type: physicochemical; conditions: 24 EC, 20 minutes
Reported weight increase rate (%) is given for each of the following compounds.
Give your result in % as a bare value.

Below are worked cases with known answers.
>  <compound>
CCOC(=O)[C@H](C)N.O=S(=O)(O)c1ccccc1 [L-Ala-OEt BsOH salt, L-alanine ethyl ester benzenesulfonate]

>  <test_result>
1.80

$$$$
>  <compound>
COC(=O)[C@H](C)N.Cl [L-Ala-OMe HCl salt, alanine methyl ester hydrochloride, reference compound]

>  <test_result>
4.85

$$$$

Looking up CCOC(=O)[C@H](C)N.CS(=O)(=O)O [L-Ala-OEt MsOH salt, L-alanine ethyl ester methanesulfonate] , I found its weight increase rate (%) recorded as 0.35

Looking up CCOC(=O)[C@H](C)N.O=S(=O)(O)c1ccc(Cl)cc1 [L-Ala-OEt 4-CBS salt] , I found its weight increase rate (%) recorded as 2.83

====

test: Experimental Example 5: comparison of hygroscopicity by weight gain over time (60 to 66% RH); type: physicochemical; conditions: 24 EC, 140 minutes
readout_name: weight increase rate (%)
Give your result in % as a bare value.

Below are worked cases with known answers.
>  <compound>
CCOC(=O)[C@H](C)N.O=S(=O)(O)c1ccc(Cl)cc1 [L-Ala-OEt 4-CBS salt]

>  <test_result>
4.76

$$$$
>  <compound>
COC(=O)[C@H](C)N.Cl [L-Ala-OMe HCl salt, alanine methyl ester hydrochloride, reference compound]

>  <test_result>
15.46

$$$$
>  <compound>
CCOC(=O)[C@H](C)N.O=S(=O)(O)c1ccccc1 [L-Ala-OEt BsOH salt, L-alanine ethyl ester benzenesulfonate]

>  <test_result>
2.22

$$$$

Next item in the queue.
Looking up CCOC(=O)[C@H](C)N.CS(=O)(=O)O [L-Ala-OEt MsOH salt, L-alanine ethyl ester methanesulfonate] , I found its weight increase rate (%) recorded as 0.48

// provenance: patent US7205433B2
